The reported measurements were obtained from the supplement of paper PMC11208160.

assay: recombinant UMI read abundance after kanamycin selection (control-corrected) (log10(CPM+1)); higher = more efficient recombination; extreme values may be limits of the assay; sequences stand for … in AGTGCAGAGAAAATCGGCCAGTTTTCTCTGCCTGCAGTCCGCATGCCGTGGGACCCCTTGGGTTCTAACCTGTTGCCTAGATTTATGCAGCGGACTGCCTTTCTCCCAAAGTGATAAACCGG…AGGTTGGTTTCACT; site = the 11-nt donor
measuredEndpoint: recombinant UMI read abundance (log10)
Reply with just the number.

CGTTAGACATGGACCGGTTTTCCCGGTAATCCGTATTTGAG (site CGCTAGACTCT) : 0.501
GTTAGAACATGGACCGGTTTTCCCGGTAATCCGTATTTGGC (site GTTAGAACTGT) : 0
AAGGCGACATGGACCGGTTTTCCCGGTAATCCGTATTTGCT (site AAGGCGACTAG) : 2.18
TCCAACGCATGGACCGGTTTTCCCGGTAATCCGTATTTGCG (site TCCACCGCTCG) : 0
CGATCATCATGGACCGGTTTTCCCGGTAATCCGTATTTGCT (site CTATCATCTCG) : 0.0222

Problem: I'd like to know its recombinant UMI read abundance (log10). The sequence in question is CAGTCAACATGGACCGGTTTTCCCGGTAATCCGTATTTGTG (site CAGTCAACTCA)
Solution: 0.0625

Problem: I'd like to know its recombinant UMI read abundance (log10). The sequence in question is AGCCGAGCATGGACCGGTTTTCCCGGTAATCCGTATTTGTT (site AGCCCAGCTAA)
Solution: 0.0229

Problem: I'd like to know its recombinant UMI read abundance (log10). The sequence in question is GCGAAGACATGGACCGGTTTTCCCGGTAATCCGTATTTGGG (site GCGAAGACTCC)
Solution: 0.479

Problem: I'd like to know its recombinant UMI read abundance (log10). The sequence in question is TAAAGTCCATGGACCGGTTTTCCCGGTAATCCGTATTTGTA (site TAAAGTCCTCA)
Solution: 0.00255

Problem: I'd like to know its recombinant UMI read abundance (log10). The sequence in question is AGGCTGTCATGGACCGGTTTTCCCGGTAATCCGTATTTGTT (site AGGCTGTCTAA)
Solution: 1.64

* * *

# reported recombinant barcode read abundance (log10); entries follow
test: recombinant barcode read abundance after kanamycin selection (control-corrected) (log10(CPM+1)); higher = more efficient recombination; sequences stand for … in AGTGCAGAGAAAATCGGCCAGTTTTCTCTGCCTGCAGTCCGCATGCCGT…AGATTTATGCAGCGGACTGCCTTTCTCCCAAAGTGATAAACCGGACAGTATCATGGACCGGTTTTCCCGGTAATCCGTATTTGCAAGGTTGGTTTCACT; site = the 11-nt target
Reply with just the number.

See these solved cases before continuing.
TGAATGACTTGGGTTCTAACCTGTTGCCT (site TGGATGCCTAG) : 0.0355
GGCTTGACTTGGGTTCTAACCTGTTGCCT (site CCAGGTGCTCC) : 0.304
GAGTGGCCTTGGGTTCTAACCTGTTGCTT (site GAGTGGCCTAA) : 1.54
TAGTCCACTTGGGTTCTAACCTGTTGCTA (site TAGTCCACTTA) : 1.15
ATTTAAGCTTGGGTTCTAACCTGTTGCCT (site GAGCGGCCTCT) : 0.0137
ACTTTAGCTTGGGTTCTAACCTGTTGCTT (site ACTTGAACTAA) : 0.438

Problem: I'd like to know its recombinant barcode read abundance (log10). The sequence in question is GTTTGGCCTTGGGTTCTAACCTGTTGCTT (site GTTTGGCCTAA)
Solution: 0.541

Problem: I'd like to know its recombinant barcode read abundance (log10). The sequence in question is GTACGTACTTGGGTTCTAACCTGTTGCCT (site GTACGTACTAG)
Solution: 0.586

Problem: I'd like to know its recombinant barcode read abundance (log10). The sequence in question is CACTAGCCTTGGGTTCTAACCTGTTGCGG (site CACTAGCCTCC)
Solution: 2.41

Problem: I'd like to know its recombinant barcode read abundance (log10). The sequence in question is CCTGGACCTTGGGTTCTAACCTGTTGCGT (site CCTGGACCTAC)
Solution: 2.06
